- system under test: human BACE1 (Homo sapiens, UniProt P56817)
- Sequence (P56817 46-501): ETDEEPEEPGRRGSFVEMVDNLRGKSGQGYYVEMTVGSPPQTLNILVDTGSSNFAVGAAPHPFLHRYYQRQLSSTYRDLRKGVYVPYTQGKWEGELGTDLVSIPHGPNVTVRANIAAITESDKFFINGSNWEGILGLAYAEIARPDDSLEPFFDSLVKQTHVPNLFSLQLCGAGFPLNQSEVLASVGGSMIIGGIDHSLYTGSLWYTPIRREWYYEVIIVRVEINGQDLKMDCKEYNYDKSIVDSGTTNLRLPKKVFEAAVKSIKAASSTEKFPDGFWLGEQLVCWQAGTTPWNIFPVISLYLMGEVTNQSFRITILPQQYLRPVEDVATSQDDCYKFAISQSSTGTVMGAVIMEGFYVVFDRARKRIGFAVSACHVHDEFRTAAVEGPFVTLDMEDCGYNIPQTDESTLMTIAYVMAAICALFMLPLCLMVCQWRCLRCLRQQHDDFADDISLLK
- protocol notes: Fluorescent kinetic assay, human BACE1 (FRET peptide substrate WABC-6);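 further: fluorescence monitored at excitation 320 nm and emission 420 nm over 30 min, with the substrate cleavage rate taken as the linear slope of the signal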
- Type: biochemical
- test context: fluorescent kinetic assay, 25 μM substrate WABC-6, pH 4.5, room temperature; read-out: IC50 (μM) BACE 1
# IC50 values compiled below
quantity name: IC50

compound: NC(=NC(=O)Cn1c(-c2ccccc2)ccc1C12CC3CC(CC(C3)C1)C2)NCC1CCCO1 (centres unmarked)
quantity name: IC50
reported: 0.11 to 1 µM

compound: CC[C@H](C)COc1ccc(-c2ccc(-c3ccccc3)n2CC(=O)N=C(N)N)cc1
quantity name: IC50
reported: 1.1 to 5 µM

compound: CC(C)c1ccc(-c2ccc(-c3ccccc3)n2CC(=O)N=C(N)NCc2ccc(F)c(F)c2F)cc1
quantity name: IC50
reported: 1.1 to 5 µM

compound: C=CCNC(=O)c1ccc(-c2ccc(-c3ccccc3)n2CC(=O)N=C(N)NCCCO)cc1
quantity name: IC50
reported: 0.11 to 1 µM

compound: CCCNC(=O)c1ccc(-c2ccc(-c3ccccc3)n2CC(=O)N=C(N)NCCCO)cc1
quantity name: IC50
reported: 0.11 to 1 µM
